Where do the numbers come from? From paper PMC10720262.

measuredOn: PfCSP full length (Plasmodium falciparum (isolate NF54), UniProt P19597)
Sequence (P19597 20-375): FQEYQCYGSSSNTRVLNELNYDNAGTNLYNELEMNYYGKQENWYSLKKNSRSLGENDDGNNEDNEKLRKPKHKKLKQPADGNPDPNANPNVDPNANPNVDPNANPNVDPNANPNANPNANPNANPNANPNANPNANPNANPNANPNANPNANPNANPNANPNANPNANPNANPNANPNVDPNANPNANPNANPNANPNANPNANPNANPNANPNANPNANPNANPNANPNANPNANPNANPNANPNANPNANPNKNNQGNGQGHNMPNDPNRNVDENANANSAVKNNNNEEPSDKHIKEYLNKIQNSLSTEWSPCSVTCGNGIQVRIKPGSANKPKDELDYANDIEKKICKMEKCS
protocol: ELISA AUC
reportedMetric: binding score
Numbers only.

binder	binding score
CL-458015 (antibody, V domains shown, peptides N-terminally acetylated and C-terminally amidated) VH: QVHLVESGGGVVQPGRSLRLSCAASGFTFSNYGMHWVRQAPGKGLDWVAIIWYDGSNKFYADSVQGRFTISRDNSKNTLYLQMNSLRAEDTAVYYCAKVQDLLGVPSTLGDHYTTDVWGQGTSVTVSS VL: DIQMTQSPSTLSASVGDRITITCRASQSINDWLAWYQQKAGKAPKLLIYKASSLESGVPSRFSGSGSGTDFTLTISSLQTDDFAIYYCQQYNHYWTFGQGTKVEIK	2.2

Please examine the following record next.
Query block: Provide only the value of recorded binding score for CL-512191 (antibody, V domains shown, peptides N-terminally acetylated and C-terminally amidated) VH: QVQLVESGGGVVQPGRSLRLSCAASGFTFSNYAMHWVRQAPGKGLEWVAVIWYDGSNKYYADSVKGRFTISRDDSKNTLYLQMNSLRAEDTAVYYCARDKGYRYGFNWFDPWGQGTLVTVSS VL: QSVLTQPPSVSGAPGQRVTISCTGSSSNIGAGYDVHWYQKLPGTAPKLLIFSNSNRPSGVPDRFSGSKSGTSASLAITGLQAEDEADYYCQSYDSSLSGSRVFGGGTKLTVL
Result block: 2.31
